# credit: patent US7094429B2

# METHOD: Conversion process: active dissolved in supernatant of centrifuged MAS/tannic acid conversion samples
# CONDITION_PARAMETERS: in-situ tannate conversion, supernatant after 10 min mixing, centrifuged at 6500 rpm
PROPERTY_LABEL: Assay (% Dissolved) 10 mins (%)

| MOLECULE | UNIT_LABEL | Assay (% Dissolved) 10 mins |
| --- | --- | --- |
| COc1ccc(CN(CCN(C)C)c2ccccn2)cc1 [Pyrilamine] | % | 0.10 |

a. CN(C)CCC(c1ccc(Cl)cc1)c1ccccn1 (stereo not shown) [Chlorpheniramine]
b. CCN(CC)CCOCCOC(=O)C1(c2ccccc2)CCCC1 [Carbetapentane]
c. CNC[C@H](O)c1cccc(O)c1 [Phenylephrine]
Output the entries ranked by Assay (% Dissolved) 10 mins from maximum down to minimum. # the answer lists labels in the order requested
c, a, b
